Assay: Metabolic stability in dog Hepatocyte assessed as compound hydrolysis at 5 uM incubated for 3 hrs by LC-MS/MS analysis
Type: ADME, cell-based, Canis lupus familiaris
Conditions: hepatocytes, read-out: Drug degradation
Value kind: metabolised at 3 h, 5 µM

INSERT INTO measurements (sample_smiles, value_kind, observed_measurement) VALUES
  ('Cn1cc(-c2ccnc(-n3ncc4cc(C(C)(C)C)cc(F)c4c3=O)c2CO)cc(NC(=O)[C@@H]2C[C@@H]2F)c1=O', 'metabolised at 3 h, 5 µM', '≤ 1%');

---

Experiment: Metabolic stability in human liver microsomes assessed as intrinsic clearance at 1 uM measured upto 60 mins by LC-MS/MS analysis
Format: ADME, Microsome
Conditions: read-out: CLH
Please use Criterion met whenever CLint scaled at 1 µM is not below 7 mL/min/kg, and Criterion not met whenever it is.

INSERT INTO results (compound, class_name) VALUES
  ('Cn1nc(-c2ccnc(-n3ncc4cc(C(C)(C)C)cc(F)c4c3=O)c2CO)cc(NC(=O)[C@@H]2C[C@@H]2F)c1=O', 'Criterion met'),
  ('Cn1cc(-c2ccnc(-n3ncc4c5c(sc4c3=O)CCCC5)c2CO)cc(NC(=O)C2CC2)c1=O', 'Criterion met'),
  ('Cn1cc(-c2ccnc(-n3ncc4cc(C(C)(C)C)cc(F)c4c3=O)c2CO)cc(NC(=O)[C@@H]2C[C@H]2F)c1=O', 'Criterion not met'),
  ('Cn1cc(-c2ccnc(N3CCc4c(cc5n4CCCC5)C3=O)c2CO)cc(NC(=O)C2CC2)c1=O', 'Criterion met'),
  ('C[C@H]1CN(C2COC2)CCN1c1ccc(Nc2cc(-c3ccnc(N4CCn5c(cc6c5CC(C)(C)C6)C4=O)c3CO)cn(C)c2=O)nc1 [FENEBRUTINIB]', 'Criterion met'),
  ('Cn1cc(-c2ccnc(-n3ncc4cc(C(C)(C)C)cc(F)c4c3=O)c2CO)cc(NC(=O)[C@H]2C[C@H]2F)c1=O', 'Criterion not met'),
  ('Cn1cc(-c2ccnc(N3CCn4c(cc5c4CC(C)(C)C5)C3=O)c2CO)cc(NC(=O)C2CC2)c1=O', 'Criterion not met');
